- Tested on: SJSA-1 cells
- assayDetails: Cell lysis by peptidomimetic macrocycles (LDH release)
- Type: cell-based
- experimentalParameters: 50 μM, SJSA-1, 1 h
Bridge positions count the residues as written; N and C are the ends. Square brackets hold non-standard residues; d marks the D form. Peptide text beside a SMILES is read from it. R8 = C=CCCCCCC[C@@](C)(N)C(=O)O; hLeu = CC(C)CC[C@H](N)C(=O)O; S5 = C=CCCC[C@](C)(N)C(=O)O

compound	50 μM % Lysed cells (1 h LDH) / %
CC(=O)N[C@@H](CC(C)C)C(=O)N[C@H](C(=O)N[C@@H](Cc1ccccc1)C(=O)N[C@]1(C)CCCCCCC=CCCC[C@@](C)(C(=O)N[C@@H](CO)C(=O)N[C@@H](C)C(=O)N[C@@H](CCC(C)C)C(N)=O)NC(=O)[C@H](CC(C)C)NC(=O)[C@H](CCC(N)=O)NC(=O)[C@H](C)NC(=O)[C@H](Cc2c[nH]c3ccccc23)NC(=O)[C@H](Cc2ccc(O)cc2)NC(=O)[C@H](C)NC1=O)[C@@H](C)O [compound 6] (Ac-LTF[R8]AYWAQL[S5]SA[hLeu]-NH2; staple 4-11)	1
CC[C@H](C)[C@H](NC(=O)[C@H](C)NC(=O)[C@H](C)NC(=O)[C@]1(C)CCCC=CCCCCCC[C@@](C)(NC(=O)[C@H](Cc2ccccc2)NC(=O)[C@@H](NC(=O)[C@H](CC(C)C)NC(C)=O)[C@@H](C)O)C(=O)N[C@@H](C)C(=O)N[C@@H](Cc2ccc(O)cc2)C(=O)N[C@@H](Cc2c[nH]c3ccccc23)C(=O)N[C@@H](C)C(=O)N[C@@H](C)C(=O)N[C@@H](CC(C)C)C(=O)N1)C(=O)N[C@H](C)C(N)=O (single isomer, unassigned) [compound 203]	2
CC(=O)N[C@@H](CC(C)C)C(=O)N[C@H](C(=O)N[C@@H](Cc1ccccc1)C(=O)N[C@]1(C)CCCCCCC=CCCC[C@@](C)(C(=O)N[C@@H](CO)C(=O)N[C@@H](C)C(=O)N[C@@H](C)C(N)=O)NC(=O)[C@H](C2CCCC2)NC(=O)[C@H](CCC(N)=O)NC(=O)[C@H](C)NC(=O)[C@H](Cc2c[nH]c3ccccc23)NC(=O)[C@H](Cc2ccc(O)cc2)NC(=O)[C@H](CCC(=O)O)NC1=O)[C@@H](C)O (single isomer, unassigned) [compound 149]	21
CC(=O)N[C@@H](CC(C)C)C(=O)N[C@H](C(=O)N[C@@H](Cc1ccccc1)C(=O)N[C@]1(C)CCCCCCC=CCCC[C@@](C)(C(=O)N[C@@H](C)C(=O)N[C@@H](C)C(=O)N[C@@H](C)C(=O)N[C@@H](C)C(=O)N[C@@H](C)C(=O)N[C@H](C)C(N)=O)NC(=O)[C@H](CC2CCC2)NC(=O)[C@H](CCC(N)=O)NC(=O)[C@H](C)NC(=O)[C@H](Cc2c[nH]c3ccccc23)NC(=O)[C@H](Cc2ccc(O)cc2)NC(=O)[C@H](CCC(=O)O)NC1=O)[C@@H](C)O (single isomer, unassigned) [compound 347]	0
CC(C)CC[C@@H]1NC(=O)[C@H](CCC(N)=O)NC(=O)[C@H](C)NC(=O)[C@H](Cc2c[nH]c3ccccc23)NC(=O)[C@H](Cc2ccc(O)cc2)NC(=O)[C@H](CCC(=O)O)NC(=O)[C@](C)(NC(=O)[C@H](Cc2ccccc2)NC(=O)[C@@H](NC(=O)[C@H](CC(C)C)NC(=O)CN(C)C)[C@@H](C)O)CCCCCCC=CCCC[C@@](C)(C(=O)N[C@@H](CO)C(=O)N[C@@H](C)C(=O)N[C@@H](C)C(N)=O)NC1=O [compound 279]	6
CC(=O)N[C@@H](CC(C)C)C(=O)N[C@H](C(=O)N[C@@H](Cc1ccccc1)C(=O)N[C@]1(C)CCCCCCC=CCCC[C@@](C)(C(=O)N[C@@H](CO)C(=O)NC(C)(C)C(=O)N[C@@H](C)C(=O)N[C@@H](C)C(N)=O)NC(=O)[C@H](CC(C)C)NC(=O)[C@H](CCC(N)=O)NC(=O)[C@H](C)NC(=O)[C@H](Cc2c[nH]c3ccccc23)NC(=O)[C@H](Cc2ccc(O)cc2)NC(=O)[C@H](C)NC1=O)[C@@H](C)O (single isomer, unassigned) [compound 26]	0
CC(=O)N[C@@H](CC(C)C)C(=O)N[C@H](C(=O)N[C@@H](Cc1ccccc1)C(=O)N[C@]1(C)CCCCCCC=CCCC[C@@](C)(C(=O)N[C@@H](C)C(=O)N[C@@H](C)C(=O)N[C@@H](C)C(=O)N[C@H](C)C(N)=O)NC(=O)[C@H](CC(C)C)NC(=O)[C@H](CCC(N)=O)NC(=O)[C@H](C)NC(=O)[C@H](Cc2c[nH]c3ccccc23)NC(=O)[C@H](Cc2ccc(O)cc2)NC(=O)[C@H](C)NC1=O)[C@@H](C)O (single isomer, unassigned) [compound 230]	3
CC(=O)N[C@@H](CC(C)C)C(=O)N[C@H](C(=O)N[C@@H](Cc1ccccc1)C(=O)N[C@]1(C)CCCCCCC=CCCC[C@@](C)(C(=O)N[C@@H](CO)C(=O)N[C@H](C(=O)NCC(N)=O)C(C)C)NC(=O)[C@H](CC(C)C)NC(=O)[C@H](CCC(N)=O)NC(=O)[C@H](C)NC(=O)[C@H](Cc2c[nH]c3ccccc23)NC(=O)[C@H](Cc2ccc(O)cc2)NC(=O)[C@H](C)NC1=O)[C@@H](C)O [compound 123] (Ac-LTF[R8]AYWAQL[S5]SVG-NH2; staple 4-11)	3
CC(=O)N[C@@H](CC(C)C)C(=O)N[C@H](C(=O)N[C@@H](Cc1ccccc1)C(=O)N[C@]1(C)CCCCCCC=CCCC[C@@](C)(C(=O)N[C@@H](CO)C(=O)N[C@@H](C)C(=O)N[C@@H](C)C(N)=O)NC(=O)[C@H](CC(C)C)NC(=O)[C@H](C)NC(=O)[C@H](C(C)C)NC(=O)[C@H](Cc2c[nH]c3ccccc23)NC(=O)[C@H](Cc2ccc(O)cc2)NC(=O)[C@H](C)NC1=O)[C@@H](C)O [compound 196] (Ac-LTF[R8]AYWVAL[S5]SAA-NH2; staple 4-11)	3
